# Tested on: Hek293T
# test_description: Primary qHTS to identify gynecologic anti-cancer compounds using libraries of approved drugs and bioactive compounds (AID 1345084); also: nearly all actives have a fitted effect of over 55% in size
# test_parameters: Gynecologic cancer cell panel viability, ATPlite luminescence, 48 h, control line for the selectivity index; series mostly up to 57.5 µM
Inconclusive results are not listed. Active and inactive are the calls of the source. Calls follow the shape of the dose curve; as a rule, active = well fitted cell-killing curve with a large enough effect; inconclusive = small, poorly fitted or top-dose-only effect, or effect the other way; inactive = flat fitted curve, though single readings scatter.
Reply using exactly one outcome from 1 (active), 0 (inactive)

q: Which outcome was entered for the compound C=C1CCC2C(C)(C(=O)O)CCCC2(C)C1CCC(C)CC(=O)O (centres undefined) in this test?
a: 0

q: Hi, sorry to bother you, what did the test record for CC(O)/C=C/C1C(C)C(O[C@@H]2O[C@H](CO)[C@@H](O)[C@H](O)[C@H]2O)C(O)CC1(C)C (some centres undefined) ?
a: 0

Now examine the next entry.
q: Outcome? Cc1ccc(Cc2c(C)nc3nc(SCC(=O)NCCN4CCNCC4)nn3c2C)cc1
a: 0
